molecular target: RSK1 (Homo sapiens, UniProt Q15418); assay: RSK1 kinase assay; type: biochemical; conditions: 10 μM compound; read-out: RSK1 percent of inhibition
Sequence (Q15418 whole entry, species assumed): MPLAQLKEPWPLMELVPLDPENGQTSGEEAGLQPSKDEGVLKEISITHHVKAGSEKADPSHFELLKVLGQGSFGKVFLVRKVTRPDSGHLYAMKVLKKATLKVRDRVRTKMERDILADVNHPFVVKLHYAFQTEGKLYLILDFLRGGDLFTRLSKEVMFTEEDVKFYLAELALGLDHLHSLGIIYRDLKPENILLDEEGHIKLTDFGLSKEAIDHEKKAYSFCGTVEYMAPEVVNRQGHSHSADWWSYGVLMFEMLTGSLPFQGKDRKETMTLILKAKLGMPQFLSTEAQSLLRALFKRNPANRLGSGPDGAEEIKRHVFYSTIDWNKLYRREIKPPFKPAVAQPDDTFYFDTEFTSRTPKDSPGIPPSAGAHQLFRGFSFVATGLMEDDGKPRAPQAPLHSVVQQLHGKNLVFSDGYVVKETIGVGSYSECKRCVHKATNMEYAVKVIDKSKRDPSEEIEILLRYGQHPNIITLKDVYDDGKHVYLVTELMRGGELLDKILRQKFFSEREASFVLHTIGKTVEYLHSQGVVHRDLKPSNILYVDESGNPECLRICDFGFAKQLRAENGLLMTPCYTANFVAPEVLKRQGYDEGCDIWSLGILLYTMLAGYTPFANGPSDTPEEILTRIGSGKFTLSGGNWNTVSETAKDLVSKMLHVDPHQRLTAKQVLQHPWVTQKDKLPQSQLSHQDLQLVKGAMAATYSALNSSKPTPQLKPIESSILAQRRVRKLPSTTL
quantity kind: inhibition at 10 µM (%)
Field: numeric (%). Do not append units.

[Q] Quick check: inhibition at 10 µM of `Clc1cccc(Nc2ncnc3sc4ccccc4c23)c1` ?
[A] -2

[Q] Quick check: inhibition at 10 µM of `COc1cccc(Nc2nc(C3CC3)nc3sc4ccccc4c23)c1` ?
[A] 7

[Q] Quick check: inhibition at 10 µM of `Nc1cccc(Nc2nc(C3CC3)nc3sc4c(c23)CCCC4)c1` ?
[A] 0

[Q] Quick check: inhibition at 10 µM of `Brc1cccc(Nc2nc(C3CC3)nc3sc4ccccc4c23)c1` ?
[A] -4

* * *

Biological target: Kit (Homo sapiens, UniProt P10721)
Sequence (P10721 26-976, species assumed): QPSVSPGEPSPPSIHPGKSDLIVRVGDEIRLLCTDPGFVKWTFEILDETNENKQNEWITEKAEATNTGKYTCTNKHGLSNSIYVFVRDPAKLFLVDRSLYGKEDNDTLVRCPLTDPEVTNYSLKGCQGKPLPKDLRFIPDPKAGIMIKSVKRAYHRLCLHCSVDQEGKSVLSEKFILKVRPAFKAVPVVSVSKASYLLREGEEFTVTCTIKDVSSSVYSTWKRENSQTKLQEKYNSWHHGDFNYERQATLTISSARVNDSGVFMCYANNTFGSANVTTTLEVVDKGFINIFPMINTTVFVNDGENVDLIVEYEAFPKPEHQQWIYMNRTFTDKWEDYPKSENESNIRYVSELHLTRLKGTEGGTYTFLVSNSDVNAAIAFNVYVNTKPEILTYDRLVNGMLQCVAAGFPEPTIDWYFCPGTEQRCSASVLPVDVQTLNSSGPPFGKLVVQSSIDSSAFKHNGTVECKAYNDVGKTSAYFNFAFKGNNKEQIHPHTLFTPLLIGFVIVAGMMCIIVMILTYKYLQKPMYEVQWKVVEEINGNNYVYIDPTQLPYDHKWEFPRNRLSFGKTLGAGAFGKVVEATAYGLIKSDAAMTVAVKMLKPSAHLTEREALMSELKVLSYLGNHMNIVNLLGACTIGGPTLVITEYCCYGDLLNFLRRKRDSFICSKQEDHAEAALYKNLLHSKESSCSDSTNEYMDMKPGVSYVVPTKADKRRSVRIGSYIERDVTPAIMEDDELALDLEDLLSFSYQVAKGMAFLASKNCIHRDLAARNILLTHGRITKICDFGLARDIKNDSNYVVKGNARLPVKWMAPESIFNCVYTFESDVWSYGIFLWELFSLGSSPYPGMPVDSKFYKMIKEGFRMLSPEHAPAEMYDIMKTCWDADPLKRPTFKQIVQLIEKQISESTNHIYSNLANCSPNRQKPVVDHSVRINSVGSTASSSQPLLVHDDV
Assay: Kit kinase assay
Type: biochemical
Conditions: 10 μM compound; read-out: Kit percent of inhibition
Protocol: General description of the kinase assays: the kinase activity was assayed in 96-well microtiter plates at a final compound concentration of 10 μM in a total volume of 50 μl. Compounds were dissolved in 100% DMSO to prepare a 10 mM stock solution and than diluted with buffer to reach a 10 μM (or the required) final concentration. The kinase concentration was used to yield 10% ATP turn over. […] The radioactivity was counted on a Microbeta microplate counter.
Please provide measured inhibition at 10 µM for the entries that follow.
Field: numeric (%). Do not append units.

[Q] Quick check: inhibition at 10 µM of `Brc1cccc(Nc2nc(C3CC3)nc3sc4ccccc4c23)c1` ?
[A] 5

[Q] Quick check: inhibition at 10 µM of `Fc1cccc(Nc2ncnc3sc4c(c23)CCCC4)c1` ?
[A] -5

[Q] Quick check: inhibition at 10 µM of `O=[N+]([O-])c1cccc(Nc2nc(C3CC3)nc3sc4c(c23)CCCC4)c1` ?
[A] -12

[Q] Quick check: inhibition at 10 µM of `Nc1cccc(Nc2nc(C3CC3)nc3sc4c(c23)CCCC4)c1` ?
[A] -8

[Q] Quick check: inhibition at 10 µM of `Nc1ccc(Nc2ncnc3sc4c(c23)CCCC4)cc1` ?
[A] 20

[Q] Quick check: inhibition at 10 µM of `N#Cc1cccc(Nc2nc(C3CC3)nc3sc4c(c23)CCCC4)c1` ?
[A] -12

[Q] Quick check: inhibition at 10 µM of `Oc1cccc(Nc2nc(C3CC3)nc3sc4c(c23)CCCC4)c1` ?
[A] -12

[Q] Quick check: inhibition at 10 µM of `FC(F)(F)c1cccc(Nc2nc(C3CC3)nc3sc4c(c23)CCCC4)c1` ?
[A] -1

[Q] Quick check: inhibition at 10 µM of `Clc1ccc(Nc2ncnc3sc4c(c23)CCCC4)cc1` ?
[A] 10

[Q] Quick check: inhibition at 10 µM of `COc1cccc(Nc2nc(C3CC3)nc3sc4ccccc4c23)c1` ?
[A] 8

[Q] Quick check: inhibition at 10 µM of `Fc1cccc(Nc2nc(C3CC3)nc3sc4ccccc4c23)c1` ?
[A] -1

[Q] Quick check: inhibition at 10 µM of `Clc1cccc(Nc2nc(C3CC3)nc3sc4ccccc4c23)c1` ?
[A] 11

[Q] Quick check: inhibition at 10 µM of `COc1cccc(Nc2nc(C3CC3)nc3sc4c(c23)CCCC4)c1` ?
[A] 1

[Q] Quick check: inhibition at 10 µM of `Fc1cccc(Nc2ncnc3sc4ccccc4c23)c1` ?
[A] -4

[Q] Quick check: inhibition at 10 µM of `Oc1cccc(Nc2nc(C3CC3)nc3sc4ccccc4c23)c1` ?
[A] 3

[Q] Quick check: inhibition at 10 µM of `Fc1ccc(Nc2ncnc3sc4c(c23)CCCC4)cc1` ?
[A] 7

Provenance of the data: patent US8802849B2
